Field: kon. Provide a value for each of the binders that follow.
- Target Desc: T1, Human OX40 protein (hOX40-His) (human, UniProt P43489 29-214)
- T1 construct: Soluble analyte in the SPR assay; also called His-tagged human OX40; not shown: His tag
- T1 sequence: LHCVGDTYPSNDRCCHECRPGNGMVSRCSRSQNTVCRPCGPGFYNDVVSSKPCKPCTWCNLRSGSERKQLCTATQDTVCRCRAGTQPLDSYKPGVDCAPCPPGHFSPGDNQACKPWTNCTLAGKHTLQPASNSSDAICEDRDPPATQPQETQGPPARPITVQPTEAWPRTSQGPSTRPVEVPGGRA
- Assay Summary: SPR, Biacore T200, antibody captured on Protein A chip, hOX40-His as analyte, 1:1 Langmuir fit
Give just the numeric value; M⁻¹ s⁻¹ need not be written.

kon recorded for this binder, 9H3-H3K2-IgG1 (antibody, V domains shown, Humanized, with human IgG1 constant domains; also called 9H3 humanized antibody H3K2) VH: QVQLVESGGGVVQPGRSLRISCAVSGFSLTSYGVLWVRQAPGKGLEWLGVIWSGGSTDYNAAFISRLTISRDNSKSTVYFQMNSLRAEDTAVYYCAREEFGYWGQGTLVTVSS VL: DIQMTQSPSSLSASVGDRVTITCRASQDINNYLNWYQQKPGGAVKLLIYYTSRLHSGVPSRFSGSGSGTDFTLTISSLQPEDIATYYCQQTNTLPWTFGGGTKLEIKR , is 192000

# binder 9H3-H2K2-IgG1 (antibody, V domains shown, Humanized, with human IgG1 constant domains; also called 9H3 humanized antibody H2K2) VH: QVQLVESGGGVVQPGRSLRISCAVSGFSLTSYGVLWVRQAPGKGLEWVAVIWSGGSTDYNAAFISRLTISRDNSKSTVYFQMNSLRAEDTAVYYCAREEFGYWGQGTLVTVSS VL: DIQMTQSPSSLSASVGDRVTITCRASQDINNYLNWYQQKPGGAVKLLIYYTSRLHSGVPSRFSGSGSGTDFTLTISSLQPEDIATYYCQQTNTLPWTFGGGTKLEIKR ; its kon = 227000

For record 5C1-mHvKv-IgG1 (antibody, V domains shown, Chimeric: mouse 5C1 variable domains with human IgG1 constant domains; also called 5C1 chimeric antibody) VH: EVQLQQSGTVLARPGASVKMSCKASGYSFTSYWMHWVKQRPGQGLEWIGTIYPGNSDTSNNQKFKGKAKLTAVTSASTAYMELSSLTNEDSAVYYCTTFYYRYEDYYAMDYWGQGTSVTVSS VL: DIVMTQSHKFMSTSVGDRVSITCKASQDVNTAVAWYQQKPGQSPKLLIYSASYRYTGVPDRFTGSGSGTDFTFTISSVQAEDLAVYYCQQHYSTPFTFGSGTKLEIK the listed kon is 54900

response.value for 9H3-H2K1-IgG1 (antibody, V domains shown, Humanized, with human IgG1 constant domains (CL, CH1, CH2, CH3); also called 9H3 humanized antibody H2K1) VH: QVQLVESGGGVVQPGRSLRISCAVSGFSLTSYGVLWVRQAPGKGLEWVAVIWSGGSTDYNAAFISRLTISRDNSKSTVYFQMNSLRAEDTAVYYCAREEFGYWGQGTLVTVSS VL: DIQMTQSPSSLSASVGDRVTITCRASQDINNYLNWYQQKPGGAVKLLIYYTSRLHTGVPSRFSGSGSGTDFTLTISSLQPEDIATYYCQQTNTLPWTFGGGTKLEVKR (field: kon) = 223000

Please fill in: kon reported for 9A4 (mouse antibody) (antibody, V domains shown, also called 07-9A4) VH: EVQLQQFGAELVKPGASVKISCKASGYTFTDYNMDWVKQSHGKSLEWIGDINPNYDSTSYNQKFKGKATLTVDKSSSTAYMELRSLTSEDTAVYYCARGGYGNYVDYFDYWGQGTTLTVSS VL: NIVMTQSPKSMSMSVGERVTLSCKASENVVTYVSWYQQKPEQSPKLLIYGASNRYTGVPDRFTGSGSATDFTLTISSVQAEDLADYHCGQSYSYPYTFGGGTKLEIK = 89100

For this binder ( 9H3-mHvKv-IgG1 (antibody, V domains shown, Chimeric: mouse 9H3 variable domains with human IgG1 constant domains (CL, CH1, CH2, CH3); also called 9H3 chimeric antibody; chimeric anti-hOX40 antibody) VH: QVQLKQSGPGLVQPSQSLSITCTVSGFSLTSYGVLWVRQPPGKGLEWLGVIWSGGSTDYNAAFISRLSISKDNSKSQVFFKMNSLQADDTAIYYCAREEFGYWGQGTLVTVSA VL: DIQMTQTTSSLSASLGDRVTISCRASQDINNYLNWYQQKPDGTVKLLIYYTSRLHSGVPSRFSGSGSGTDYSLTISNLEQEDIATYFCQQTNTLPWTFGGGTKLEIK ), measured kon is 258000
